# condition-details: 298.15 K; 100 kPa; Liquid; Vibrating tube method
± gives the expanded uncertainty stated by the source.
measurement-label: mass density
Please provide the amount together with its unit, number first.

Briefly, mass density measured for CCCC[NH3+].O=C[O-] [butylammonium formate] : 973.8 ± 2 kg/m3

Briefly, mass density measured for CCCC(=O)[O-].CCCC[NH3+] [n-butylammonium butanoate] : 904.94 ± 1.8 kg/m3

Briefly, mass density measured for CCC(=O)[O-].CCCC[NH3+] [butylammonium propanoate] : 930.84 ± 1.9 kg/m3

Briefly, mass density measured for CC(=O)O.CCCCN [butylammonium acetate] : 955.95 ± 1.9 kg/m3

###

Catalogue of surface tension liquid-gas readings, one per entry.
# condition-details: 318.15 K; Liquid; Maximal bubble pressure
± gives the expanded uncertainty stated by the source.

# count of solved cases: 3
CCC(=O)[O-].CCCC[NH3+] [butylammonium propanoate]; 26.5 ± 0.3 mN/m
CC(=O)O.CCCCN [butylammonium acetate]; 29.8 ± 0.3 mN/m
CCCC(=O)[O-].CCCC[NH3+] [n-butylammonium butanoate]; 24.2 ± 0.3 mN/m

Briefly, surface tension liquid-gas measured for CCCC[NH3+].O=C[O-] [butylammonium formate] : 31.5 ± 0.3 mN/m

###

# condition-details: 293.15 K; 100 kPa; Liquid; Capillary tube (Ostwald / Ubbelohde) method
± gives the expanded uncertainty stated by the source.
Catalogue of viscosity readings, one per entry.

# count of solved cases: 3
CCCC(=O)[O-].CCCC[NH3+] [n-butylammonium butanoate]; 1112 ± 120 mPa·s
CCCC[NH3+].O=C[O-] [butylammonium formate]; 160.19 ± 16 mPa·s
CCC(=O)[O-].CCCC[NH3+] [butylammonium propanoate]; 916.56 ± 100 mPa·s

Briefly, viscosity measured for CC(=O)O.CCCCN [butylammonium acetate] : 771.6 ± 84 mPa·s

###

# condition-details: 303.15 K; 100 kPa; Liquid; Vibrating tube method
Catalogue of mass density readings, one per entry.
Your answer is read as kg/m3, so omit the unit and give the number.

# count of solved cases: 3
CC(=O)O.CCCCN [butylammonium acetate]; 952.87
CCC(=O)[O-].CCCC[NH3+] [butylammonium propanoate]; 927.79
CCCC[NH3+].O=C[O-] [butylammonium formate]; 970.66

Briefly, mass density measured for CCCC(=O)[O-].CCCC[NH3+] [n-butylammonium butanoate] : 902.06

###

# condition-details: 323.15 K; Liquid; Maximal bubble pressure
Catalogue of surface tension liquid-gas readings, one per entry.
Your answer is read as mN/m, so omit the unit and give the number.

CCCC[NH3+].O=C[O-] [butylammonium formate]; 31.1
CCC(=O)[O-].CCCC[NH3+] [butylammonium propanoate]; 26.2
CCCC(=O)[O-].CCCC[NH3+] [n-butylammonium butanoate]; 23.9

Attention now turns to another entry.
Briefly, surface tension liquid-gas measured for CC(=O)O.CCCCN [butylammonium acetate] : 29.5

###

# condition-details: 308.15 K; 100 kPa; Liquid; Vibrating tube method
measurement-label: mass density (kg/m3)
Your answer is read as kg/m3, so omit the unit and give the number.

# count of solved cases: 3
CC(=O)O.CCCCN [butylammonium acetate]; 949.87
CCCC(=O)[O-].CCCC[NH3+] [n-butylammonium butanoate]; 899.18
CCC(=O)[O-].CCCC[NH3+] [butylammonium propanoate]; 924.86

Attention now turns to another entry.
Briefly, mass density measured for CCCC[NH3+].O=C[O-] [butylammonium formate] : 967.48
